Test system: Escherichia coli TOP10;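 also: peptides expressed intracellularly from a pBAD plasmid library in pooled LB shake-flask culture, induced with 0.3% L-arabinose, DNA abundance read by NGS, three biological replicates, DESeq2 with apeglm shrinkage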
Assay: shrunken log2 fold change of peptide-encoding DNA abundance (4.5 h post-induction vs induction); higher = less antimicrobial activity (less host growth inhibition)
Conditions: time post-induction: 4.5 h; library: site-saturation at positions 5, 18, 19, 20
Could you label it Yes if measured shrunken log2 fold change is -0.06 or higher, and No otherwise?

Lookup: Decide: shrunken log2 fold change of RRIRYRPPRLPRPRPRPFGLPRP >= -0.06?
Found: No

Lookup: What about RRIRKRPPRLPRPRPRPKCMPRP ?
Found: Yes

Lookup: What about RRIRRRPPRLPRPRPRPKNDPRP ?
Found: Yes

Lookup: What about RRIRFRPPRLPRPRPRPVKDPRP ?
Found: No

Lookup: What about RRIRFRPPRLPRPRPRPGQFPRP ?
Found: No

Lookup: What about RRIRSRPPRLPRPRPRPMSLPRP ?
Found: Yes

Lookup: What about RRIRHRPPRLPRPRPRPQCPPRP ?
Found: No

Lookup: What about RRIRPRPPRLPRPRPRPPRGPRP ?
Found: Yes

Lookup: What about RRIRPRPPRLPRPRPRPPVKPRP ?
Found: Yes

Lookup: What about RRIRTRPPRLPRPRPRPSCEPRP ?
Found: No

Lookup: What about RRIRFRPPRLPRPRPRPSTNPRP ?
Found: No

Lookup: What about RRIRDRPPRLPRPRPRPIYQPRP ?
Found: No

Lookup: What about RRIRHRPPRLPRPRPRPEINPRP ?
Found: No

Lookup: What about RRIRTRPPRLPRPRPRPSSGPRP ?
Found: Yes

Lookup: What about RRIRIRPPRLPRPRPRPIFYPRP ?
Found: No

Lookup: What about RRIRTRPPRLPRPRPRPVEIPRP ?
Found: No

Lookup: What about RRIRTRPPRLPRPRPRPYYIPRP ?
Found: No

Lookup: What about RRIRWRPPRLPRPRPRPLGKPRP ?
Found: Yes

Lookup: What about RRIRQRPPRLPRPRPRPMWFPRP ?
Found: Yes

Lookup: What about RRIRHRPPRLPRPRPRPEYNPRP ?
Found: No

Lookup: What about RRIRHRPPRLPRPRPRPYYWPRP ?
Found: Yes

Lookup: What about RRIRCRPPRLPRPRPRPAPAPRP ?
Found: Yes

Lookup: What about RRIRHRPPRLPRPRPRPQGLPRP ?
Found: No

Lookup: What about RRIRFRPPRLPRPRPRPQHSPRP ?
Found: No

Lookup: What about RRIRPRPPRLPRPRPRPTVVPRP ?
Found: Yes

Lookup: What about RRIRTRPPRLPRPRPRPTYNPRP ?
Found: No

Lookup: What about RRIRYRPPRLPRPRPRPFIYPRP ?
Found: No

Lookup: What about RRIRTRPPRLPRPRPRPYGPPRP ?
Found: No

Lookup: What about RRIRFRPPRLPRPRPRPYMKPRP ?
Found: No

Lookup: What about RRIRIRPPRLPRPRPRPSSIPRP ?
Found: No

Lookup: What about RRIRKRPPRLPRPRPRPAICPRP ?
Found: Yes

Lookup: What about RRIRKRPPRLPRPRPRPNEKPRP ?
Found: Yes

Lookup: What about RRIRFRPPRLPRPRPRPYEVPRP ?
Found: No

Lookup: What about RRIRLRPPRLPRPRPRPRCMPRP ?
Found: No

Lookup: What about RRIRNRPPRLPRPRPRPVDPPRP ?
Found: Yes

Lookup: What about RRIRDRPPRLPRPRPRPRCAPRP ?
Found: Yes

Lookup: What about RRIRQRPPRLPRPRPRPKEFPRP ?
Found: Yes

Lookup: What about RRIRPRPPRLPRPRPRPDPVPRP ?
Found: Yes

Lookup: What about RRIRMRPPRLPRPRPRPNRDPRP ?
Found: Yes

Lookup: What about RRIRTRPPRLPRPRPRPCLKPRP ?
Found: Yes

Lookup: What about RRIRFRPPRLPRPRPRPNWMPRP ?
Found: Yes

Lookup: What about RRIRFRPPRLPRPRPRPQLPPRP ?
Found: No

Lookup: What about RRIRCRPPRLPRPRPRPQLEPRP ?
Found: No

Lookup: What about RRIRCRPPRLPRPRPRPQVEPRP ?
Found: Yes

Lookup: What about RRIRWRPPRLPRPRPRPMSRPRP ?
Found: Yes

Lookup: What about RRIRYRPPRLPRPRPRPVLCPRP ?
Found: No

Lookup: What about RRIRWRPPRLPRPRPRPANVPRP ?
Found: No

Where these numbers come from: the supplement of paper PMC9112550
